# experimental_details: Selectivity index, ratio of CC50 for human mock-infected MT4 cells to EC50 for HIV1 3B harboring reverse transcriptase F227L/V106A double mutant infected in human MT4 cells
# Assay type: toxicity, cell-based
# applied_conditions: MT4 cells (mock-infected for CC50, HIV-1 infected for EC50)
quantity_measured: selectivity ratio
One number for each entry.

See these solved cases before continuing.
Cc1cc(C#N)cc(C)c1Oc1nc(NC2CCN(Cc3ccc(S(C)(=O)=O)cc3)CC2)nc2ccsc12 | 507
Cc1cc(C)c(Oc2nc(NC3CCN(Cc4ccc(F)cc4)CC3)nc3ccsc23)c(C)c1 | 2
Cc1cc(C)c(Oc2nc(NC3CCN(Cc4ccc(S(C)(=O)=O)cc4)CC3)nc3ccsc23)c(C)c1 | 81

Now turn to the next compound.
Returns the measured selectivity ratio for the input compound. Input: Cc1cc(C#N)cc(C)c1Oc1nc(NC2CCN(Cc3ccc(C(N)=O)cc3)CC2)nc2ccsc12
8860

Sourced from ChEMBL document CHEMBL3853327
